Could you please report measured TTE calculated from cord:maternal serum concentrations, maximum for the items listed next?
experiment: Transplacental transfer efficiency (TTE): cord serum at delivery divided by maternal serum concentration, present study; type: in vivo, human; details: cord serum at delivery / maternal serum at 15 weeks of gestation
Answers are plain numbers.

[[record]]
compound = "O=C(O)C(F)(F)C(F)(F)C(F)(F)C(C(F)(F)F)(C(F)(F)F)C(F)(F)F"
assay_result = 0.48

[[record]]
compound = "O=S(=O)(O)C(F)(F)C(F)(F)C(F)(F)C(F)(F)C(F)(F)C(F)(F)F [Total PFHxS, perfluorohexane sulfonate]"
assay_result = 0.56

[[record]]
compound = "O=S(=O)(O)C(F)(F)C(F)(F)C(F)(F)C(F)(F)C(F)(F)C(F)(F)C(F)(F)C(F)(F)F [Total PFOS, perfluorooctane sulfonate]"
assay_result = 0.53

[[record]]
compound = "O=S(=O)(O)C(F)(F)C(F)(F)C(F)(F)C(F)(F)C(F)(C(F)(F)F)C(F)(F)C(F)(F)F (stereo not drawn)"
assay_result = 0.93

[[record]]
compound = "O=S(=O)(O)C(F)(C(F)(F)F)C(F)(F)C(F)(F)C(F)(F)C(F)(F)C(F)(F)C(F)(F)F (stereo not drawn)"
assay_result = 1.24

[[record]]
compound = "O=C(O)C(F)(F)C(F)(F)C(F)(F)C(F)(F)C(F)(F)C(F)(F)C(F)(F)C(F)(F)C(F)(F)F [Total PFDA, perfluorodecanoate]"
assay_result = 1.10

[[record]]
compound = "O=C(O)C(F)(F)C(F)(F)C(F)(F)C(F)(F)C(F)(F)C(F)(F)C(F)(F)F [n-PFOA]"
assay_result = 1.00

[[record]]
compound = "O=S(=O)(O)C(F)(F)C(F)(F)C(F)(F)C(F)(F)C(F)(F)C(F)(C(F)(F)F)C(F)(F)F"
assay_result = 0.60


Please find the next compound below.
Recorded TTE calculated from cord:maternal serum concentrations, maximum of O=S(=O)(O)C(F)(F)C(F)(F)C(F)(F)C(F)(C(F)(F)F)C(F)(F)C(F)(F)C(F)(F)F (stereo not drawn) , please.
0.85

====

Could you please report measured TTE calculated from cord:maternal serum concentrations, maximum for the items listed next?
assay: Transplacental transfer efficiency (TTE): cord serum at delivery divided by maternal serum concentration, present study; format: in vivo, human; details: cord serum at delivery / maternal serum at 15 weeks of gestation

[[record]]
molecule = "O=S(=O)(O)C(F)(F)C(F)(F)C(F)(C(F)(F)F)C(F)(F)C(F)(F)C(F)(F)C(F)(F)F (stereo not shown)"
assay_result = 1.12


I need TTE calculated from cord:maternal serum concentrations, maximum for every entry listed below, if you could help.
1. O=C(O)C(F)(F)C(F)(F)C(F)(C(F)(F)F)C(F)(F)C(F)(F)C(F)(F)F (stereo not shown)
2. O=C(O)C(F)(F)C(F)(F)C(F)(F)C(F)(F)C(F)(C(F)(F)F)C(F)(F)F
3. O=C(O)C(F)(F)C(F)(F)C(F)(F)C(F)(C(F)(F)F)C(F)(F)C(F)(F)F (stereo not shown)

[1.29, 2.56, 2.26]

====

assay: Transplacental transfer efficiency (TTE): cord serum at delivery divided by maternal serum concentration, present study; assay type: in vivo, human; details: cord serum at delivery / maternal serum at 15 weeks of gestation
Could you please report measured TTE calculated from cord:maternal serum concentrations, median for the items listed next?

Below, each entry is followed by its recorded TTE calculated from cord:maternal serum concentrations, median result.
[[record]]
compound = "O=C(O)C(F)(F)C(F)(F)C(F)(F)C(F)(F)C(F)(F)C(F)(F)C(F)(F)C(F)(F)C(F)(F)F [Total PFDA, perfluorodecanoate]"
assay_result = 0.23

[[record]]
compound = "O=S(=O)(O)C(F)(F)C(F)(F)C(F)(F)C(F)(F)C(F)(F)C(F)(F)F [Total PFHxS, perfluorohexane sulfonate]"
assay_result = 0.38

[[record]]
compound = "O=S(=O)(O)C(F)(F)C(F)(F)C(F)(C(F)(F)F)C(F)(F)C(F)(F)C(F)(F)C(F)(F)F (centres unmarked)"
assay_result = 0.68

[[record]]
compound = "O=S(=O)(O)C(F)(C(F)(F)F)C(F)(F)C(F)(F)C(F)(F)C(F)(F)C(F)(F)C(F)(F)F (centres unmarked)"
assay_result = 0.88

[[record]]
compound = "O=S(=O)(O)C(F)(F)C(F)(F)C(F)(F)C(F)(F)C(F)(F)C(F)(F)C(F)(F)C(F)(F)F [Total PFOS, perfluorooctane sulfonate]"
assay_result = 0.31

[[record]]
compound = "O=C(O)C(F)(F)C(F)(F)C(F)(F)C(F)(F)C(F)(F)C(F)(F)C(F)(F)F [n-PFOA]"
assay_result = 0.61


I need TTE calculated from cord:maternal serum concentrations, median for every entry listed below, if you could help.
1. O=S(=O)(O)C(F)(F)C(F)(F)C(F)(F)C(F)(F)C(F)(C(F)(F)F)C(F)(F)C(F)(F)F (centres unmarked)
2. O=C(O)C(F)(F)C(F)(F)C(F)(C(F)(F)F)C(F)(F)C(F)(F)C(F)(F)F (centres unmarked)
3. O=C(O)C(F)(F)C(F)(F)C(F)(F)C(F)(F)C(F)(F)C(F)(F)C(F)(F)F [Total PFOA, perfluorooctanoate]
4. O=C(O)C(F)(F)C(F)(F)C(F)(F)C(F)(C(F)(F)F)C(F)(F)C(F)(F)F (centres unmarked)
5. O=S(=O)(O)C(F)(F)C(F)(F)C(F)(F)C(F)(F)C(F)(F)C(F)(C(F)(F)F)C(F)(F)F
6. O=S(=O)(O)C(F)(F)C(F)(F)C(F)(F)C(F)(F)C(F)(F)C(F)(F)C(F)(F)C(F)(F)F [n-PFOS, linear perfluorooctane sulfonate]

1: 0.52; 2: 0.68; 3: 0.63; 4: 0.54; 5: 0.34; 6: 0.30

I need TTE calculated from cord:maternal serum concentrations, median for every entry listed below, if you could help.
1. O=C(O)C(F)(F)C(F)(F)C(F)(F)C(F)(F)C(F)(F)C(F)(F)C(F)(F)C(F)(F)F [Total PFNA, perfluorononanoate]
2. O=C(O)C(F)(F)C(F)(F)C(F)(F)C(C(F)(F)F)(C(F)(F)F)C(F)(F)F

1. 0.38
2. 0.25

====

assay: Transplacental transfer efficiency (TTE): cord serum at delivery divided by maternal serum concentration, present study; format: in vivo, human; conditions: cord serum at delivery / maternal serum at 15 weeks of gestation
Could you please report measured TTE calculated from cord:maternal serum concentrations, maximum for the items listed next?
Answers are plain numbers.

Below, each entry is followed by its recorded TTE calculated from cord:maternal serum concentrations, maximum result.
[[record]]
compound = "O=C(O)C(F)(F)C(F)(F)C(F)(F)C(F)(F)C(F)(F)C(F)(F)C(F)(F)C(F)(F)F [Total PFNA, perfluorononanoate]"
assay_result = 0.78

[[record]]
compound = "O=C(O)C(F)(F)C(F)(F)C(F)(F)C(F)(F)C(F)(F)C(F)(F)C(F)(F)F [Total PFOA, perfluorooctanoate]"
assay_result = 0.96


Please find the next compound below.
Recorded TTE calculated from cord:maternal serum concentrations, maximum of O=S(=O)(O)C(F)(F)C(F)(F)C(F)(F)C(F)(F)C(F)(F)C(F)(F)C(F)(F)C(F)(F)F [n-PFOS, linear perfluorooctane sulfonate] , please.
0.58

====

experiment: Transplacental transfer efficiency (TTE): cord serum at delivery divided by maternal serum concentration, present study; type: in vivo, human; details: cord serum at delivery / maternal serum at 15 weeks of gestation
Could you please report measured TTE calculated from cord:maternal serum concentrations, median for the items listed next?
One number for each entry.

[[record]]
compound = "O=C(O)C(F)(F)C(F)(C(F)(F)F)C(F)(F)C(F)(F)C(F)(F)C(F)(F)F (stereo not drawn) [3m-PFOA]"
assay_result = 0.68

[[record]]
compound = "O=C(O)C(F)(F)C(F)(F)C(F)(F)C(F)(F)C(F)(C(F)(F)F)C(F)(F)F [Iso-PFOA]"
assay_result = 0.67


Please find the next compound below.
Recorded TTE calculated from cord:maternal serum concentrations, median of O=S(=O)(O)C(F)(F)C(F)(F)C(F)(F)C(F)(C(F)(F)F)C(F)(F)C(F)(F)C(F)(F)F (stereo not drawn) [4m-PFOS] , please.
0.52

Provenance of the data: paper PMC3226492
